Known % survival of a selection of substances
test system: Hs578T; experiment: SRB cell viability after siRNA transfection; assay type: cell-based, human; settings: 40 nM siRNA, day 5 post-transfection, normalized over siCONTROL
OBSERVATION_TYPE: % survival

{"columns": ["SUBSTANCE", "RESULT"],
 "data": [
  ["siRNA #2: siRNA targeting human TTK: 5′-GGUAUUAACUGCCCAAGAA-3′ (SEQ ID NO: 4) (listed as RNA, chemistry not given here)", "1.25%"],
  ["siRNA #4: siRNA targeting human TTK: 5′-GAUAAGAUCAUCCGACUUU-3′ (SEQ ID NO: 6) (listed as RNA, chemistry not given here)", "1.16%"],
  ["siRNA #3: siRNA targeting human TTK: 5′-GCACGUGACUACUUUCAAA-3′ (SEQ ID NO: 5) (listed as RNA, chemistry not given here)", "0.53%"],
  ["siRNA #1: siRNA targeting human TTK: 5′-GCAAUACCUUGGAUGAUUA-3′ (SEQ ID NO: 3) (listed as RNA, chemistry not given here)", "1.02%"]
]}
